Protocol summary: Calculated conditional stability constants for chelants with Cu^+2 at specified pH
Type: physicochemical
Conditions used: pH 4
Excerpt: However, as the pH range of the present compositions are acidic (i.e., less than 7), the log alpha value (αm) is considered to be constant and approximately negligible.
Measured endpoint: log Conditional Stability Constant (@ pH) Cu^+2
// keep it numeric: no unit symbol after the value

query: Return the recorded log Conditional Stability Constant (@ pH) Cu^+2 value; entry: CC(C(=O)O)N(CC(=O)O)CC(=O)O (centres unmarked)
result: 7.08

query: For O=C(O)CC(NCCNC(CC(=O)O)C(=O)O)C(=O)O (mixture of isomers) , write its log Conditional Stability Constant (@ pH) Cu^+2.
result: 9.20

query: Please indicate log Conditional Stability Constant (@ pH) Cu^+2 recorded for O=C(O)CC(NCC(O)CNC(CC(=O)O)C(=O)O)C(=O)O (centres unmarked)
result: 2.99

query: Look up and report measured log Conditional Stability Constant (@ pH) Cu^+2 for this entry: O=P(O)(O)CN(CCN(CP(=O)(O)O)CP(=O)(O)O)CCN(CP(=O)(O)O)CP(=O)(O)O
result: −1.10

query: Specify measured log Conditional Stability Constant (@ pH) Cu^+2 for O=C(O)CC[C@@H](C(=O)O)N(CC(=O)O)CC(=O)O .
result: 5.75

query: Write down log Conditional Stability Constant (@ pH) Cu^+2 measured for item O=C(O)CN(CCN(CC(=O)O)CC(=O)O)CCN(CC(=O)O)CC(=O)O
result: 9.85

query: Tell me measured log Conditional Stability Constant (@ pH) Cu^+2 for O=C(O)CN(CCO)CCN(CC(=O)O)CC(=O)O please.
result: 8.85

query: Provide log Conditional Stability Constant (@ pH) Cu^+2 value for the following compound: O=C(O)CN(CCN(CC(=O)O)CC(=O)O)CC(=O)O
result: 10.46

====

Assignment: determine reported log Conditional Stability Constant (@ pH) Cu^+2 for the given molecules.
Protocol summary: Calculated conditional stability constants for chelants with Cu^+2 at specified pH
Format: physicochemical
Conditions used: pH 8
Just the number, please, no unit after it.

query: Could you please provide reported log Conditional Stability Constant (@ pH) Cu^+2 for O=C(O)CN(CCO)CCN(CC(=O)O)CC(=O)O ? Thanks!
result: 14.54

query: Output measured log Conditional Stability Constant (@ pH) Cu^+2 for this item: O=P(O)(O)CN(CCN(CP(=O)(O)O)CP(=O)(O)O)CCN(CP(=O)(O)O)CP(=O)(O)O
result: 13.85

query: # return recorded log Conditional Stability Constant (@ pH) Cu^+2 for input O=C(O)CC(NCC(O)CNC(CC(=O)O)C(=O)O)C(=O)O (stereo not shown)
result: 11.21

query: Give the reported log Conditional Stability Constant (@ pH) Cu^+2 for this molecule. O=C(O)CC(NCCNC(CC(=O)O)C(=O)O)C(=O)O (mixture of isomers)
result: 16.26

query: Tell me its log Conditional Stability Constant (@ pH) Cu^+2 given O=C(O)CN(CCN(CC(=O)O)CC(=O)O)CC(=O)O as the entry.
result: 16.60

query: Assign log Conditional Stability Constant (@ pH) Cu^+2 to the following record: O=C(O)CN(CCN(CC(=O)O)CC(=O)O)CCN(CC(=O)O)CC(=O)O
result: 18.22

query: Please give the documented log Conditional Stability Constant (@ pH) Cu^+2 of O=C(O)CC[C@@H](C(=O)O)N(CC(=O)O)CC(=O)O
result: 10.47

====

Protocol summary: Calculated conditional stability constants for chelants with Ca^+2 at specified pH
Assay type: physicochemical
Conditions used: pH 2
Could you please report measured log Conditional Stability Constant (@ pH) Ca^+2 for the items listed next?
A bare number is all that is needed in reply.

query: Indicate the recorded log Conditional Stability Constant (@ pH) Ca^+2 value for this compound: O=C(O)CC[C@@H](C(=O)O)N(CC(=O)O)CC(=O)O
result: −7.62

query: Please give the documented log Conditional Stability Constant (@ pH) Ca^+2 of O=P(O)(O)CN(CCN(CP(=O)(O)O)CP(=O)(O)O)CCN(CP(=O)(O)O)CP(=O)(O)O
result: −21.50

query: Supply log Conditional Stability Constant (@ pH) Ca^+2 value. Item: O=C(O)CN(CCN(CC(=O)O)CC(=O)O)CCN(CC(=O)O)CC(=O)O
result: −7.26

query: Tell me measured log Conditional Stability Constant (@ pH) Ca^+2 for CC(C(=O)O)N(CC(=O)O)CC(=O)O (centres unmarked) please.
result: −3.10

query: Using known records, supply log Conditional Stability Constant (@ pH) Ca^+2 for O=C(O)CC(NCCNC(CC(=O)O)C(=O)O)C(=O)O (mixture of isomers)
result: −11.11

query: Find the measured log Conditional Stability Constant (@ pH) Ca^+2 of O=C(O)CC(NCC(O)CNC(CC(=O)O)C(=O)O)C(=O)O (centres unmarked) and report it.
result: −14.17

query: Recall and state the measured log Conditional Stability Constant (@ pH) Ca^+2 for O=C(O)CN(CCO)CCN(CC(=O)O)CC(=O)O .
result: −5.81

query: Answer with reported log Conditional Stability Constant (@ pH) Ca^+2 of O=C(O)CN(CCN(CC(=O)O)CC(=O)O)CC(=O)O
result: −2.65

====

Give log Conditional Stability Constant (@ pH) Cu^+2 for every item shown.
Protocol summary: Calculated conditional stability constants for chelants with Cu^+2 at specified pH
Type: physicochemical
Conditions used: pH 5
Output: the number by itself.

query: Read the entry O=C(O)CN(CCN(CC(=O)O)CC(=O)O)CCN(CC(=O)O)CC(=O)O and write its reported log Conditional Stability Constant (@ pH) Cu^+2.
result: 12.24

query: Specify reported log Conditional Stability Constant (@ pH) Cu^+2 for the compound shown: O=C(O)CC(NCCNC(CC(=O)O)C(=O)O)C(=O)O (mixture of isomers)
result: 11.41

query: Specify reported log Conditional Stability Constant (@ pH) Cu^+2 for the compound shown: O=P(O)(O)CN(CCN(CP(=O)(O)O)CP(=O)(O)O)CCN(CP(=O)(O)O)CP(=O)(O)O
result: 2.90

query: Return log Conditional Stability Constant (@ pH) Cu^+2 for the following compound: O=C(O)CN(CCN(CC(=O)O)CC(=O)O)CC(=O)O
result: 12.45

query: For O=C(O)CN(CCO)CCN(CC(=O)O)CC(=O)O , write its log Conditional Stability Constant (@ pH) Cu^+2.
result: 10.88

query: Provide one value: measured log Conditional Stability Constant (@ pH) Cu^+2 of O=C(O)CC(NCC(O)CNC(CC(=O)O)C(=O)O)C(=O)O (centres unmarked)
result: 5.40

query: Give the reported log Conditional Stability Constant (@ pH) Cu^+2 for this compound. O=C(O)CC[C@@H](C(=O)O)N(CC(=O)O)CC(=O)O
result: 7.33

query: Return the recorded log Conditional Stability Constant (@ pH) Cu^+2 value; entry: CC(C(=O)O)N(CC(=O)O)CC(=O)O (centres unmarked)
result: 8.11

====

Exercise: for every item that follows, state its recorded log Conditional Stability Constant (@ pH) Cu^+2.
Protocol summary: Calculated conditional stability constants for chelants with Cu^+2 at specified pH
Assay type: physicochemical
Conditions used: pH 2
Lab note: jot the number down without any unit.

query: Supply measured log Conditional Stability Constant (@ pH) Cu^+2 of O=C(O)CC(NCCNC(CC(=O)O)C(=O)O)C(=O)O (mixture of isomers) in your reply.
result: 2.59

query: Let me know recorded log Conditional Stability Constant (@ pH) Cu^+2 for O=P(O)(O)CN(CCN(CP(=O)(O)O)CP(=O)(O)O)CCN(CP(=O)(O)O)CP(=O)(O)O , thanks.
result: −9.10

query: Determine its reported log Conditional Stability Constant (@ pH) Cu^+2: O=C(O)CC(NCC(O)CNC(CC(=O)O)C(=O)O)C(=O)O (centres unmarked)
result: −4.27

query: Given the compound CC(C(=O)O)N(CC(=O)O)CC(=O)O (centres unmarked) , write its reported log Conditional Stability Constant (@ pH) Cu^+2.
result: 3.80

query: State its log Conditional Stability Constant (@ pH) Cu^+2 for this compound: O=C(O)CN(CCN(CC(=O)O)CC(=O)O)CC(=O)O
result: 5.45

query: Indicate the recorded log Conditional Stability Constant (@ pH) Cu^+2 value for this compound: O=C(O)CN(CCN(CC(=O)O)CC(=O)O)CCN(CC(=O)O)CC(=O)O
result: 3.34

query: Return log Conditional Stability Constant (@ pH) Cu^+2 (reported value) for this compound: O=C(O)CN(CCO)CCN(CC(=O)O)CC(=O)O
result: 3.39

query: Tell me its log Conditional Stability Constant (@ pH) Cu^+2 given O=C(O)CC[C@@H](C(=O)O)N(CC(=O)O)CC(=O)O as the entry.
result: −0.42

====

Protocol summary: Calculated conditional stability constants for chelants with Cu^+2 at specified pH
Assay type: physicochemical
Conditions used: pH 6
1 if log Conditional Stability Constant (@ pH) Cu^+2 is below 8. -1 if not; exact matches included in -1.

query: Is 8 strictly greater than the compound's reported log Conditional Stability Constant (@ pH) Cu^+2? compound: O=C(O)CC(NCCNC(CC(=O)O)C(=O)O)C(=O)O (mixture of isomers)
result: -1

query: Find out if reported log Conditional Stability Constant (@ pH) Cu^+2 for O=C(O)CN(CCO)CCN(CC(=O)O)CC(=O)O is less than 8
result: -1

query: API: query returns whether the compound falls strictly under 8 in log Conditional Stability Constant (@ pH) Cu^+2. Query: O=C(O)CC[C@@H](C(=O)O)N(CC(=O)O)CC(=O)O
result: -1

query: Consider the compound CC(C(=O)O)N(CC(=O)O)CC(=O)O (centres unmarked) . Is its log Conditional Stability Constant (@ pH) Cu^+2 strictly less than 8?
result: -1

query: Does O=P(O)(O)CN(CCN(CP(=O)(O)O)CP(=O)(O)O)CCN(CP(=O)(O)O)CP(=O)(O)O have log Conditional Stability Constant (@ pH) Cu^+2 strictly under 8?
result: 1

query: Report whether reported log Conditional Stability Constant (@ pH) Cu^+2 is lower than 8 (strictly) for O=C(O)CC(NCC(O)CNC(CC(=O)O)C(=O)O)C(=O)O (centres unmarked)
result: 1

query: Here's an entry: O=C(O)CN(CCN(CC(=O)O)CC(=O)O)CCN(CC(=O)O)CC(=O)O . Is its log Conditional Stability Constant (@ pH) Cu^+2 below 8?
result: -1

query: Is log Conditional Stability Constant (@ pH) Cu^+2 strictly under 8 for the entry O=C(O)CN(CCN(CC(=O)O)CC(=O)O)CC(=O)O ?
result: -1
